Measured values drawn from ChEMBL document CHEMBL1154113 for this set.

target.desc: Cannabinoid receptor 1 (Homo sapiens)
Sequence (P21554 whole entry): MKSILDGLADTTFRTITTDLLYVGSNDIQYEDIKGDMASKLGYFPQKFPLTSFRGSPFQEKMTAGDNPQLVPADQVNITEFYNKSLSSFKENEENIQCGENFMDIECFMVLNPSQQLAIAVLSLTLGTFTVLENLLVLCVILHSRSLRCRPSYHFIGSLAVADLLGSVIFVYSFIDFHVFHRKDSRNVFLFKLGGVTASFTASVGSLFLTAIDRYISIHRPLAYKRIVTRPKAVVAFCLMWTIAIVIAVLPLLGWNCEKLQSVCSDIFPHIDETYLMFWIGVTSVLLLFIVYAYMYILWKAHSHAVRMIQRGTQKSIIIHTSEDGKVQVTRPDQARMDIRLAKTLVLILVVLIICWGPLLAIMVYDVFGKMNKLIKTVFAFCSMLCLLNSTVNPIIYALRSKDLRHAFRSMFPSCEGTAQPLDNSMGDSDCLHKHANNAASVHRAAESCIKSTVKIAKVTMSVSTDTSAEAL
pKi: −log10 of the molar value.
Tick rule met if pKi is 7 or greater. Tick rule not met if pKi is less than 7.

> print(dat)
                              smiles.record           cat
1  Cc1c(C(=O)NC2CCCCCC2)nn(-c2ccc(Cl)c(Cl)c2)c1-n1c(C)ccc1C      rule met
2  COc1ccc(CCNC(=O)c2nn(-c3ccc(Cl)cc3Cl)c(-n3cccc3)c2C)cc1Cl  rule not met
3  Cc1c(C(=O)Nc2ccc(Cl)cc2)nn(-c2ccc(F)cc2F)c1-n1cccc1  rule not met
4  Cc1c(C(=O)NC2CCCCCC2)nn(-c2ccc(F)cc2F)c1-n1cccc1  rule not met
5  Cc1c(C(=O)NC2CCCC2)nn(-c2ccc(Cl)c(Cl)c2)c1-n1c(C)ccc1C      rule met

Now let's try a different one.
I'd appreciate it if you could say whether Cc1c(C(=O)NCCc2ccc(Cl)cc2Cl)nn(-c2ccc(F)cc2F)c1-n1c(C)ccc1C has pKi at least equal to 7.
rule met

---

target.desc: UniProtKB P34972
test: Displacement of [3H]CP-55940 from human recombinant CB2 receptor expressed in HEK cells
measured.quantity: pKi
Please express pKi as -log10 of the molar concentration.

Worked cases, answers included:
> print(dat)
                              smiles.record       target.desc  measured.quantity  measurement
1  Cc1c(C(=O)NCCc2ccc(Cl)cc2)nn(-c2ccc(Cl)c(Cl)c2)c1-n1cccc1  UniProtKB P34972                pKi         5.92
2  COc1ccc(CCNC(=O)c2nn(-c3ccc(Cl)cc3Cl)c(-n3c(C)ccc3C)c2C)cc1Cl  UniProtKB P34972                pKi         5.46
3  Cc1c(C(=O)NC2CCCC2)nn(-c2ccc(Cl)cc2Cl)c1-n1cccc1  UniProtKB P34972                pKi         6.77

We now examine a further molecule.
Specify pKi for Cc1c(C(=O)NC2CCCCCC2)nn(-c2ccc(F)cc2F)c1-n1cccc1 and stop.
6.70

---

The following compounds are listed with their measured Ki values.
target.desc: Cannabinoid receptor 2 (Homo sapiens, UniProt P34972)
Sequence (P34972 whole entry): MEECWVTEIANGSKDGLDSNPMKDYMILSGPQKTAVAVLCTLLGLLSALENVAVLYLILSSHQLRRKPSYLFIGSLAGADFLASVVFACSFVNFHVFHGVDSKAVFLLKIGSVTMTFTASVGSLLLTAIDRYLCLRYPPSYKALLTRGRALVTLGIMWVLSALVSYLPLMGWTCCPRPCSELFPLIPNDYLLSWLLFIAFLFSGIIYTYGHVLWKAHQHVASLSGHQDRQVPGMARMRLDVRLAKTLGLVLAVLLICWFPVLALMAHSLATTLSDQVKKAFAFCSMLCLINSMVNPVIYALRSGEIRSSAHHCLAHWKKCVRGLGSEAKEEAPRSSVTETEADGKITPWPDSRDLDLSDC
test: Displacement of [3H]CP-55940 from human recombinant CB2 receptor expressed in HEK cells
Supply the numeric figure in nM, leaving out any unit text.

The examples below pair each entry with its known result.
> print(dat)
                              smiles.record  measurement
1  Cc1c(C(=O)Nc2ccc(Cl)cc2)nn(-c2ccc(Cl)cc2Cl)c1-n1cccc1           80
2  COc1cc(CNC(=O)c2nn(-c3ccc(F)cc3F)c(-n3cccc3)c2C)c(Br)c(OC)c1OC          739
3  COc1ccc(CCNC(=O)c2nn(-c3ccc(F)cc3F)c(-n3cccc3)c2C)cc1Cl         1940
4  Cc1c(C(=O)NC2CCCC2)nn(-c2ccc(Cl)cc2Cl)c1-n1c(C)ccc1C          310

Next, consider the following compound.
Provide measured Ki value, entry: Cc1c(C(=O)NC2CCCCCC2)nn(-c2ccc(Cl)cc2Cl)c1-n1c(C)ccc1C
80

---

Species: Homo sapiens
test: Selectivity index, ratio of Ki for human recombinant CB2 receptor to Ki for human recombinant CB1 receptor
Catalogue of compounds with associated Ratio Ki
Could you keep your reply to the number by itself?

Examples from the recorded data:
> print(dat)
                              smiles.record  measurement
1  Cc1c(C(=O)NC2CCCC2)nn(-c2ccc(Cl)cc2Cl)c1-n1c(C)ccc1C         2.07
2  Cc1c(C(=O)N[C@H](C)C2CCCCC2)nn(-c2ccc(Cl)c(Cl)c2)c1-n1cccc1         0.11
3  Cc1c(C(=O)NCCc2ccc(Cl)cc2)nn(-c2ccc(Cl)c(Cl)c2)c1-n1cccc1            5
4  Cc1c(C(=O)NC2CCCCCC2)nn(-c2ccc(Cl)cc2Cl)c1-n1cccc1            1

Report Ratio Ki for Cc1c(C(=O)NC23CC4CC(CC(C4)C2)C3)nn(-c2ccc(Cl)c(Cl)c2)c1-n1cccc1
0.65
